Ref: patent US10703764B2

Catalogue of IC50 readings, one per entry.
Biological target: BRD4 BD2 (Homo sapiens, UniProt O60885)
Assay: AlphaScreen binding assay, BRD4 Bromodomain 2

{"compound": "COC(=O)N1c2ccc(-c3cnn(C4CC4)c3)cc2N(C(=O)C2CC2)C[C@@H]1C", "measured-quantity": "IC50", "observed": "0.05 to 0.5 µM"}
{"compound": "CC(=O)N1c2ccc(-c3ccc(N4CCOCC4)cc3)cc2N(C(=O)C2CC2)C[C@@H]1C", "measured-quantity": "IC50", "observed": "0.05 to 0.5 µM"}

So, "CC(=O)N1c2ccc(-c3cnn(C4CS(=O)(=O)C4)c3)cc2N(C(=O)OC2CCCC2)C[C@@H]1C" ? Its IC50 was < 0.05 µM

So, "C[C@H]1CN(C(=O)c2ccco2)c2cc(-c3ccc(S(C)(=O)=O)cc3)ccc2N1C(=O)C(F)(F)F" ? Its IC50 was > 0.5 µM

So, "CC(=O)N1c2ccc(-c3ccc(S(C)(=O)=O)cc3)cc2N(C)C[C@@H]1C" ? Its IC50 was > 0.5 µM

So, "CC(=O)N1c2ccc(-c3ccc(C(=O)N4CC[C@H](O)C4)cc3)cc2N(C(=O)OC(C)C)C[C@@H]1C" ? Its IC50 was 0.05 to 0.5 µM

So, "COCCC(=O)N1C[C@H](C)N(C(C)=O)c2ccccc21" ? Its IC50 was > 0.5 µM

So, CC(=O)N1c2ccc(-c3ccc4[nH]ccc4c3)cc2N(C(=O)c2ccco2)CC1C (stereo not drawn) ? Its IC50 was > 0.5 µM

* * *

Catalogue of IC50 readings, one per entry.
Molecular target: BRD4 BD1 (Homo sapiens)
Experiment: AlphaScreen binding assay, BRD4 Bromodomain 1

Observe how each entry below is paired with its result.
{"compound": "CO[C@H](C(=O)N1C[C@H](C)N(C(C)=O)c2ccccc21)c1ccccc1 [Example I-741]", "IC50": "> 10000 nM"}
{"compound": "CCOC(=O)N1C[C@H](C)N(C(C)=O)c2ccc(-c3cc(Cl)cc(S(C)(=O)=O)c3)cc21 [Example I-1096]", "IC50": "1000 to 10000 nM"}
{"compound": "CC(=O)N1c2ccccc2N(Cc2cccc(OCCN(C)C)c2)C[C@@H]1C [Example I-908]", "IC50": "> 10000 nM"}
{"compound": "CC(=O)N1c2ccc(-c3cccc(C#N)c3)cc2N(C(=O)c2ccco2)C[C@@H]1C [Example I-812]", "IC50": "1000 to 10000 nM"}
{"compound": "CC(=O)N1c2ccc(-c3ccc(S(=O)(=O)N(C)C)cc3)cc2N(C(=O)c2ccco2)C[C@@H]1C [Example I-277]", "IC50": "1000 to 10000 nM"}
{"compound": "CC(=O)N1c2ccc(-c3ccc(C(=O)NCc4ncco4)cc3)cc2N(C(=O)OC(C)C)C[C@@H]1C [Example I-584]", "IC50": "100 to 1000 nM"}
{"compound": "CC(=O)N1c2ccc(-c3cnn(C4CC4)c3)cc2N(c2nn(C)c3ncccc23)C[C@@H]1C [Example I-184]", "IC50": "100 to 1000 nM"}
{"compound": "CC(=O)N1c2ccc(-c3ccc(-n4cccn4)cc3)cc2N(C(=O)c2ccco2)C[C@@H]1C [Example I-803]", "IC50": "1000 to 10000 nM"}

So, CC(=O)N1c2ccc(-c3ccc(S(C)(=O)=O)cc3)cc2N(C(=O)OC2COC2)C[C@@H]1C [Example I-497] ? Its IC50 was 1000 to 10000 nM

So, CC(=O)N1c2ccc(-c3ccc(OCCC#N)cc3)cc2N(C(=O)c2ccco2)C[C@@H]1C [Example I-428] ? Its IC50 was 100 to 1000 nM

So, CC(=O)N1c2ccc(-c3cncc(F)c3)cc2N(C(=O)c2ccco2)C[C@@H]1C [Example I-830] ? Its IC50 was 1000 to 10000 nM

So, CC(C)OC(=O)N1C[C@H](C)N(C(=O)C2CC2)c2ccc(-c3cnn(CC4(CO)COC4)c3)cc21 [Example I-615] ? Its IC50 was 100 to 1000 nM

So, CC(=O)N1c2ccccc2N(C(=O)CN2CCS(=O)(=O)CC2)C[C@@H]1C [Example I-767] ? Its IC50 was > 10000 nM
